# Tested on: PC-3 prostate
# TEST PROTOCOL: NCI-60 one-dose screen, 48 h (100 = growth as untreated, 0 = no growth, -100 = all killed)
# PARTICULARS: 10 µM unless noted
This is part of a sample that, as a whole, favours compounds with a hit. Of some 83,000 tested, about 20% had one in any assay.
RESULT TYPE: growth (%)
Express it in %; write the number only.

Below are worked cases with known answers.
O=c1oc2c(cc1-c1ccccc1)c(=O)[nH]c1ccccc12    96.3
COc1ccc2cc(-c3nc4ccc(C)cn4c3NCc3ccco3)c(=O)[nH]c2c1    46.1
O=C1/C(=C/c2ccccn2)SC(=S)N1N1CCOCC1    94.6
COc1cccc(-c2cn3nc(-c4cn(C)c5ccccc45)sc3n2)c1    94.7
CCOC(=O)CC[C@H](NC(=O)c1ccc(N(C)Cc2cnc3nc(N)nc(N)c3n2)c2ccccc12)C(=O)OCC    24.3
Cn1cc(-c2csc(-c3cn(CCCN4CCOCC4)c4ccc(F)cc34)n2)c2cccnc21    29.6
O=S(=O)(NCCNc1nccc(-c2c(-c3ccc(F)c(O)c3)nc3sccn23)n1)c1ccc(Cl)cc1    17
COc1ccc(C(c2cc(OC)c(OC)c(OC)c2)N2CCCCC2)cc1 (stereo not given)    25.1

[in] I'd like to know its growth. The compound in question is COc1ccc(C(=O)Nc2ncc(Cc3ccc(Cl)cc3)s2)cc1
[out] 22.7

[in] I'd like to know its growth. The compound in question is CCN(CC)CCOc1ccc(/C(=C(\C)Cc2ccc(OC)cc2)c2ccc(OC(=O)NCc3ccccc3)cc2)cc1
[out] 46.2

====

# System: OVCAR-5 ovarian
# TEST PROTOCOL: NCI-60 one-dose screen, 48 h (100 = growth as untreated, 0 = no growth, -100 = all killed)
# PARTICULARS: 10 µM unless noted
The panel holds about 83,000 compounds, 20% with a hit somewhere; the sample as a whole holds those more often. Active and inactive are the calls of the source. How the source made its calls: active means growth percent below 10; inactive means the rest.
The entries below come with measured growth values attached.

Below are worked cases with known answers.
O=c1oc2c(cnc3ccccc32)cc1-c1cccc(Cl)c1    94% (inactive)
CC(C)(C)OC(=O)CN1CCc2c(sc3ncnc(N4CCN(c5ccc(F)cc5)CC4)c23)C1    82.8% (inactive)
COc1ccc2cc(-c3nc4ccc(C)cn4c3NCc3ccco3)c(=O)[nH]c2c1    70.8% (inactive)
Cc1ccc2c(c1)=C/C(=C\c1cc(-c3ccccc3)[nH]c1O)C(=O)N=2    78.9% (inactive)
Nc1nc(N)c2c(n1)NC(c1cccc(Nc3ccnc4cc(C(F)(F)F)ccc34)c1)CC(c1ccc3c(c1)OCO3)=N2 (stereo not drawn)    123% (inactive)

From here, focus on the item given below.
[in] Notebook entry, OVCAR-5 ovarian assay: growth of CC(=O)O[C@H]1CC[C@]2(C)[C@H]3CC=C4[C@@H]5CC(C)(C)CC[C@]5(C(=O)N5CCN(CCC#N)CC5)CC[C@@]4(C)[C@]3(C)CC[C@H]2C1(C)C = ?
[out] 70.6% (inactive)

====

# System: LOX IMVI melanoma
# TEST PROTOCOL: NCI-60 one-dose screen, 48 h
# PARTICULARS: 10 µM unless noted
The panel holds about 83,000 compounds, 20% with a hit somewhere; the sample as a whole holds those more often. Active and inactive are the calls of the source. How the source made its calls: active means growth percent below 10; inactive means the rest.
Parameter call: string, one of active, inactive

Worked examples follow.
COCCn1cc(-c2csc(-c3c[nH]c4ccc(F)cc34)n2)c2cccnc21    inactive
O=C(/C=C/C12c3ccccc3C(c3ccccc31)C1C(=O)NC(=O)C12)c1ccco1 (stereo not given)    inactive
N#Cc1c(-c2ccc(Cl)cc2)nc(NN=Cc2ccc[nH]2)nc1N1CCOCC1    inactive

[in] Lab log entry: N#Cc1c(-c2ccc(Br)cc2)nc2c(N=Nc3ccc(S(N)(=O)=O)cc3)c(N)nn2c1N — outcome as called in the assay?
[out] inactive

[in] Lab log entry: CCSc1ccnc(N)n1 — outcome as called in the assay?
[out] inactive
